System: SR leukemia
TEST_METHOD_NOTES: NCI tumour cell line growth inhibition, 48 h; in the data active means GI50 below about 0.43 µM; inactive means the rest
Possible outcomes: active, inactive

COMPOUND | GROUP
Nc1n[nH]c2cc(F)c([C@@H]3Nc4ccc5[nH]ncc5c4[C@H]4C5CCC(C5)[C@@H]34)cc12 (stereo not given in full) | active
COc1cccc(C(=O)NC(c2ccc(C)cc2)c2cc(Cl)c3cccnc3c2O)c1 (stereo not given) | inactive
CCN1C(=O)N(c2ccccc2)C2NC(=S)N(/N=C/C=C/c3ccccc3OC)C21 (stereo not given) | active
Cc1cc(I)cc(CN(CCCN(C)C)C(C)C)c1O | inactive
COc1ccc2nc3cc(Cl)ccc3c(NCCNCC(C)O)c2c1 (stereo not given) | inactive

###

Test system: SF-539 CNS
TEST_METHOD_NOTES: NCI tumour cell line growth inhibition, 48 h; in the data active = GI50 below about 0.43 µM; inactive = the rest
Where a SMILES comes first, the peptide text is derived from it. [ ]: non-standard residue; d: D form. The star is where a group is joined. ξ: configuration not given here. X3 = COc1ccc(C(N*)c2ccc(OC)cc2)cc1; NMeF = CN[C@@H](Cc1ccccc1)C(=O)O; NMeD = CN[C@@H](CC(=O)O)C(=O)O; NMeV = CN[C@H](C(=O)O)C(C)C; ξNMeV = CNC(C(=O)O)C(C)C; Boc = CC(C)(C)OC(=O)*; ξNMeA = CNC(C)C(=O)O; ξV = CC(C)C(N)C(=O)O
Outcome codes: 1 (active), -1 (inactive)

MOLECULE | SYSTEM_NAME | GROUP
c1ccc(Sc2ncnc3ccccc23)cc1 | SF-539 CNS | -1
O=C1CCCCN1c1ccccc1C#C/C=C\C#Cc1ccccc1C(F)(F)F | SF-539 CNS | -1
O=C(Oc1ccc(Cl)cc1)c1ccccc1Nc1ccnc(C(F)(F)F)c1 | SF-539 CNS | -1
CCN(C(=O)N1CCN(c2cc3c(cc2F)c(=O)c(C(=O)O)cn3C2CC2)CC1)c1nc(-c2ccc(Cl)cc2)cs1 | SF-539 CNS | -1
Nc1n[nH]c2cccc(C#Cc3cccc(C(=O)Nc4ccc(CN5CCOCC5)c(C(F)(F)F)c4)c3)c12 | SF-539 CNS | -1
CCN1C(=O)N(c2ccccc2)C2NC(=S)N(/N=C/C=C/c3ccccc3OC)C21 (centres undefined) | SF-539 CNS | 1
CC(C)[C@@H]1C=C2CC[C@H]3[C@](C)(CN)CCC[C@]3(C)[C@H]2CC1 | SF-539 CNS | -1
COc1cccc(C(=O)NC(c2ccc(C)cc2)c2cc(Cl)c3cccnc3c2O)c1 (centres undefined) | SF-539 CNS | -1
CCCCCCCCCCCCC(O)c1ccc(C#CCCCCCCCCCO)o1 (centres undefined) | SF-539 CNS | -1
COc1ccc(C(NC(=O)C[C@@H](C(=O)N(C)C(C)C(=O)O)N(C)C(=O)[C@@H]2CCCN2C(=O)[C@H](C(C)C)N(C)C(=O)C(C(C)C)N(C)C(=O)[C@H](Cc2ccccc2)N(C)C(=O)C(NC(=O)OC(C)(C)C)C(C)C)c2ccc(OC)cc2)cc1 (some centres undefined) (Boc-[ξV][NMeF][ξNMeV][NMeV]P[NMeD](X3)[ξNMeA]-OH) | SF-539 CNS | -1
CCN(Cc1ccc(F)cc1)c1cc(Cl)c(CO)c(Cl)c1 | SF-539 CNS | -1
CCC(=C/[C@H](C)C/C=C/C(C)=C/[C@@H](C)C(=O)[C@@H](C)[C@H](O)[C@@H](C)CC)/C=C/[C@H]1OC(=O)C=C[C@@H]1C | SF-539 CNS | 1
Cn1ccc2c3c(Oc4ccc(NC(N)=O)cc4)ccnc3ccc21 | SF-539 CNS | -1
CCOC(=O)C1=C(C)N(c2ccc(F)cc2F)[C@]2(C#N)C(O)=C(Cl)C(Cl)=C(O)[C@]12C#N | SF-539 CNS | -1
Nc1cc(NN=C(c2ccc(O)cc2)c2ccc(O)cc2)c([N+](=O)[O-])cc1[N+](=O)[O-] | SF-539 CNS | -1
Cc1nnc(NC(=O)c2nc(S(=O)(=O)Cc3ccc(F)cc3)ncc2Cl)s1 | SF-539 CNS | -1
C[C@]12CCC3c4ccc(O)cc4CCC3C1CC[C@@]2(O)CNC(=O)/C=C/c1ccc(O)c(O)c1 (some centres undefined) | SF-539 CNS | -1
Nc1ccc(C2=NNC(=O)Cc3cc4c(cc32)OCCO4)cc1Cl | SF-539 CNS | -1
COc1ccc(C2[C@@H](c3ccccc3)C(=O)N2c2cc(OC)c(OC)c(OC)c2)cc1F (some centres undefined) | SF-539 CNS | 1

###

System: IGROV1 ovarian
TEST_METHOD_NOTES: NCI tumour cell line growth inhibition, 48 h
Collected TGI values appear next to each entry.
READOUT_NAME: TGI (µM)

COMPOUND | READOUT_NAME | RELATION_SIGN | READOUT_VALUE
Cc1ccnc(NS(=O)(=O)c2ccc(N=[N+]=[N-])cc2)n1 | TGI | > | 100
O=C(c1ccccn1)C1(N2CCCCC2)CCCCC1 | TGI | > | 100
O=C(/C=C/c1ccc(O)cc1)c1ccc(O)cc1 | TGI | > | 100
COc1ccc(N=NC(=Nc2ccccc2)c2ccc(N(CCC#N)CCC#N)cc2)cc1 | TGI | = | 89.3
O=c1c(-c2ccccc2)c2oc(c1-c1ccccc1)CSCc1cccc(c1)CSC2 | TGI | > | 100
N#C/C(=C\c1cccc(Cl)c1Cl)c1ccccc1 | TGI | = | 55.2
CCCCCC[C@@H]1CCC2C(CO)[C@@H](O)CC[C@@H]2C1 (stereo not given in full) | TGI | = | 34.7
COc1cccc(Nc2nc(-c3cccs3)nc3cc(OC)c(OC)cc23)c1 | TGI | = | 69.3
Cc1cc(C)nc(NS(=O)(=O)c2ccc(NC(=O)c3ccc4nc5ccccc5c(Nc5ccc(S(N)(=O)=O)cc5)c4c3)cc2)n1 | TGI | > | 100
N#CC(NCc1cccc(CNC(C#N)c2ccccc2)c1)c1ccccc1 (stereo not given) | TGI | = | 41.8

###

System: SK-MEL-28 melanoma
TEST_METHOD_NOTES: NCI tumour cell line growth inhibition, 48 h

COMPOUND | GI50
COc1ccc2nc3cc(Cl)ccc3c(NCCNCC(C)O)c2c1 (configuration not stated) | 2060 nM
Nc1c(C(=O)Nc2cccc(C(F)(F)F)c2)sc2nc3c(cc12)CCCCC3 | 3730 nM
O=C(/C(=C/c1ccc([N+](=O)[O-])cc1)SCc1ccccc1)c1ccc(Cl)cc1 | 4090 nM
COc1ccc(CN2C(=O)/C(=C\c3cc(OC)c(OC)c(OC)c3)c3ccccc32)cc1 | 1820 nM
CCCCCCCCCCCCCCCC[N+](C)(C)Cc1ccccc1 | 1680 nM
CCCOc1cc2ccccc2cc1C(=O)Nc1nc(N)c2c(ccc3nccc32)[nH]1 | 1010 nM
O=C1C=C[C@@H](COC2OC(CO)C(O)C(O)C2O)O1 (some centres not stated) | 11800 nM

###

System: IGROV1 ovarian
TEST_METHOD_NOTES: NCI tumour cell line growth inhibition, 48 h
Attribute: TGI
READOUT_NAME: TGI (µM)

COMPOUND | RELATION_SIGN | READOUT_VALUE
C[C@]12CC[C@H](O)CC1=CC[C@@H]1[C@@H]2CC[C@]2(C)C(=N/N)/C(=N\O)C[C@@H]12 | = | 75.7
NC(N)=Nc1ccc(CC(N)NCC(=O)O)cc1 (stereo not given) | > | 25
COc1cccc(C(=O)NC(c2ccc(C)cc2)c2cc(Cl)c3cccnc3c2O)c1 (stereo not given) | = | 12.4
S=C(N/N=C(/c1ccccc1)c1ccccn1)N(Cc1ccccn1)Cc1ccccn1 | = | 2.03
COP(=O)(OC)C1=c2c(C)noc2=C2C=COC2C1=O (stereo not given) | > | 100
COc1ccc2cc1Oc1ccc(cc1)C[C@H]1c3cc(c(OC)cc3CCN1C)Oc1c(O)c(OC)cc3c1[C@H](C2)N(C)CC3 | = | 65.8
O=C1C=CC(=O)c2nc3c(cc21)CCC3 | = | 34
COc1ccc(CN2C(=O)/C(=C\c3cc(OC)c(OC)c(OC)c3)c3ccccc32)cc1 | = | 4.64
O=CNc1ccc2c(c1)C(=O)c1ccccc1-2 | > | 100
CCOC(=O)N1CCN(Cc2cc(=O)n3ccc(C)cc3n2)CC1 | > | 100

###

Test system: SF-539 CNS
TEST_METHOD_NOTES: NCI tumour cell line growth inhibition, 48 h
The compounds listed here are annotated with their TGI.
READOUT_NAME: TGI

COMPOUND | READOUT_NAME | READOUT_VALUE
c1ccc(Sc2ncnc3ccccc23)cc1 | TGI | 34.2 µM
Oc1ccc(Cc2cc(Cc3ccc(O)cc3)cc(Cc3ccc(O)cc3)c2)cc1 | TGI | > 50 µM
O=CNc1ccc2c(c1)C(=O)c1ccccc1-2 | TGI | > 100 µM
CCN(Cc1ccc(F)cc1)c1cc(Cl)c(CO)c(Cl)c1 | TGI | 30.4 µM
O=C(Cc1ccc(O)c(O)c1)NCc1c[nH]c2ccccc12 | TGI | > 100 µM
CC(C)[C@@H]1C=C2CC[C@H]3[C@](C)(CN)CCC[C@]3(C)[C@H]2CC1 | TGI | 13 µM
Nc1ccccc1SC(CC(=O)c1ccccc1)c1cccc([N+](=O)[O-])c1 (configuration not stated) | TGI | 30.7 µM
Nn1c(-c2ccccc2)n[nH]c1=O | TGI | > 100 µM
O=C(c1ccccn1)C1(N2CCCCC2)CCCCC1 | TGI | > 100 µM
O=S(=O)(c1ccccc1)N1CCN(S(=O)(=O)c2ccccc2)c2ccccc21 | TGI | > 100 µM
Nc1cc(NN=C(c2ccc(O)cc2)c2ccc(O)cc2)c([N+](=O)[O-])cc1[N+](=O)[O-] | TGI | 3.85 µM
COc1ccc(CCN=C2NC(=O)/C(=C/c3ccc4ncccc4c3)S2)cc1 | TGI | > 25 µM
CC(=O)OCCOCNC(=S)N/N=C(\C)c1cnccn1 | TGI | > 100 µM
NC1(c2cc3ccccc3s2)CCCC1 | TGI | 45.3 µM
Cc1cccc(C)c1NC(=O)CCCC(=O)C1/C(=N/NC(=O)CC#N)CCC/C1=N\NC(=O)CC#N (configuration not stated) | TGI | > 100 µM
Nc1nc(-c2ccccc2)nc2oc(-c3cccs3)nc12 | TGI | > 100 µM
CN1CC[C@@H](NC(=O)Nc2ccc(C#N)cc2)C[C@@H]1c1nc2ccccc2[nH]1 | TGI | > 100 µM
COC(=O)C(CCCN1C(=O)c2ccccc2C1=O)C(=O)OC | TGI | > 100 µM
COc1ccc2cc1Oc1ccc(cc1)C[C@H]1c3cc(c(OC)cc3CCN1C)Oc1c(O)c(OC)cc3c1[C@H](C2)N(C)CC3 | TGI | 41.6 µM
Cc1ccc(Oc2ccc(C)cc2N)cc1 | TGI | > 100 µM
Cc1cc(Nc2ccc(S(=O)(=O)O)c3cc(S(=O)(=O)O)cc(S(=O)(=O)O)c23)c2ccccc2n1 | TGI | > 100 µM
CC(=O)Nc1nc(NC(C)=O)c2[nH]c(CO)nc2n1 | TGI | > 100 µM
